- Tested on: HT29 cells
- Assay overview: Cellular uptake of Pt by ICP-MS
- Format: cell-based
- Settings: HT29, extracellular 3 µM, 30 h
Reported property: Intracellular/extracellular ratio

[[record]]
molecule = "Cc1cc2cccnc2c2ncccc12.N[C@H]1CCCC[C@@H]1N.O=[N+]([O-])[O-].O=[N+]([O-])[O-].[Pt+2] [Pt^II5MESS]"
experimental_target = "HT29 cells"
reported_property = "Intracellular/extracellular ratio"
experimental_result = 3337.20

[[record]]
molecule = "Cc1c(C)c2cccnc2c2ncccc12.N[C@H]1CCCC[C@@H]1N.O=[N+]([O-])[O-].O=[N+]([O-])[O-].[OH][Pt+2][OH] [Pt^IV56MESS(OH)2]"
experimental_target = "HT29 cells"
reported_property = "Intracellular/extracellular ratio"
experimental_result = 1568.28

[[record]]
molecule = "N[C@H]1CCCC[C@@H]1N.O=[N+]([O-])[O-].O=[N+]([O-])[O-].[OH-].[OH-].[Pt+4].c1cnc2c(c1)ccc1cccnc12"
experimental_target = "HT29 cells"
reported_property = "Intracellular/extracellular ratio"
experimental_result = 909.81

[[record]]
molecule = "Cc1cc2cccnc2c2ncccc12.N[C@H]1CCCC[C@@H]1N.O=[N+]([O-])[O-].O=[N+]([O-])[O-].[OH][Pt+2][OH] [Pt^IV5MESS(OH)2]"
experimental_target = "HT29 cells"
reported_property = "Intracellular/extracellular ratio"
experimental_result = 1234.08


---

- Test system: MDA−MB−231 cells
- Assay overview: Label-free quantitative proteomics
- Type: cell-based, Homo Sapiens
- Settings: MDA−MB−231, IC50, 72 h, p < 0.05, fold change > 2
Could you please mark 1 (yes) for values of number of upregulated differentially expressed proteins below 9 and 0 (no) for values at or above it?

[[record]]
compound = "Cc1cc2cccnc2c2ncccc12.N[C@H]1CCCC[C@@H]1N.O=[N+]([O-])[O-].O=[N+]([O-])[O-].[OH][Pt+2][OH] [Pt^IV5MESS(OH)2]"
group = "0 (no)"

[[record]]
compound = "Cc1c(C)c2cccnc2c2ncccc12.N[C@H]1CCCC[C@@H]1N.O=[N+]([O-])[O-].O=[N+]([O-])[O-].[Pt+2] [Pt^II56MESS]"
group = "0 (no)"

[[record]]
compound = "Cc1c(C)c2cccnc2c2ncccc12.N[C@H]1CCCC[C@@H]1N.O=[N+]([O-])[O-].O=[N+]([O-])[O-].[OH][Pt+2][OH] [Pt^IV56MESS(OH)2]"
group = "1 (yes)"

[[record]]
compound = "N[C@H]1CCCC[C@@H]1N.O=[N+]([O-])[O-].O=[N+]([O-])[O-].[Pt+2].c1cnc2c(c1)ccc1cccnc12"
group = "0 (no)"

[[record]]
compound = "Cc1cc2cccnc2c2ncccc12.N[C@H]1CCCC[C@@H]1N.O=[N+]([O-])[O-].O=[N+]([O-])[O-].[Pt+2] [Pt^II5MESS]"
group = "0 (no)"


---

- Test system: MCF−7
- Assay overview: WST-1 cytotoxicity, 72 h
- Format: cell-based
- Settings: IC50 MCF10A/IC50 MCF−7
Reported property: Selective cytotoxicity index (SCI)

[[record]]
input_smiles = "Cc1cc2cccnc2c2ncccc12.N[C@H]1CCCC[C@@H]1N.O=[N+]([O-])[O-].O=[N+]([O-])[O-].[OH][Pt+2][OH]"
experimental_result = 5.66

[[record]]
input_smiles = "Cc1c(C)c2cccnc2c2ncccc12.N[C@H]1CCCC[C@@H]1N.O=[N+]([O-])[O-].O=[N+]([O-])[O-].[OH][Pt+2][OH]"
experimental_result = 3.61

[[record]]
input_smiles = "Cc1c(C)c2cccnc2c2ncccc12.N[C@H]1CCCC[C@@H]1N.O=[N+]([O-])[O-].O=[N+]([O-])[O-].[Pt+2]"
experimental_result = 0.73

[[record]]
input_smiles = "N[C@H]1CCCC[C@@H]1N.O=[N+]([O-])[O-].O=[N+]([O-])[O-].[Pt+2].c1cnc2c(c1)ccc1cccnc12"
experimental_result = 1.91

[[record]]
input_smiles = "Cc1cc2cccnc2c2ncccc12.N[C@H]1CCCC[C@@H]1N.O=[N+]([O-])[O-].O=[N+]([O-])[O-].[Pt+2]"
experimental_result = 1.37

[[record]]
input_smiles = "N[C@H]1CCCC[C@@H]1N.O=[N+]([O-])[O-].O=[N+]([O-])[O-].[OH-].[OH-].[Pt+4].c1cnc2c(c1)ccc1cccnc12"
experimental_result = 2.18


---

- Tested on: MDA−MB−231
- Assay overview: WST-1 cytotoxicity, 72 h
- Format: cell-based
- Settings: MDA−MB−231, 72 h
Reported property: potency relative to cisplatin (fold)

[[record]]
compound = "Cc1cc2cccnc2c2ncccc12.N[C@H]1CCCC[C@@H]1N.O=[N+]([O-])[O-].O=[N+]([O-])[O-].[OH][Pt+2][OH] [Pt^IV5MESS(OH)2]"
reported_property = "potency relative to cisplatin"
experimental_result = 5

[[record]]
compound = "Cc1cc2cccnc2c2ncccc12.N[C@H]1CCCC[C@@H]1N.O=[N+]([O-])[O-].O=[N+]([O-])[O-].[Pt+2] [Pt^II5MESS]"
reported_property = "potency relative to cisplatin"
experimental_result = 25

[[record]]
compound = "Cc1c(C)c2cccnc2c2ncccc12.N[C@H]1CCCC[C@@H]1N.O=[N+]([O-])[O-].O=[N+]([O-])[O-].[Pt+2] [Pt^II56MESS]"
reported_property = "potency relative to cisplatin"
experimental_result = 93


---

Collected ROS production values appear next to each entry.
- Tested on: MDA−MB−231 cells
- Assay overview: DCFDA cellular ROS detection assay
- Format: cell-based
- Settings: MDA−MB−231, 72 h, complexes at IC50, TBHP 20 µM
Reported property: ROS production

[[record]]
compound = "N[C@H]1CCCC[C@@H]1N.O=[N+]([O-])[O-].O=[N+]([O-])[O-].[Pt+2].c1cnc2c(c1)ccc1cccnc12"
reported_property = "ROS production"
experimental_result = "297.81 RFU"

[[record]]
compound = "CC(C)(C)OO [TBHP, tert-butyl hydroperoxide, reference compound]"
reported_property = "ROS production"
experimental_result = "388.41 RFU"

[[record]]
compound = "Cc1cc2cccnc2c2ncccc12.N[C@H]1CCCC[C@@H]1N.O=[N+]([O-])[O-].O=[N+]([O-])[O-].[OH][Pt+2][OH] [Pt^IV5MESS(OH)2]"
reported_property = "ROS production"
experimental_result = "314.78 RFU"

[[record]]
compound = "Cc1c(C)c2cccnc2c2ncccc12.N[C@H]1CCCC[C@@H]1N.O=[N+]([O-])[O-].O=[N+]([O-])[O-].[OH][Pt+2][OH] [Pt^IV56MESS(OH)2]"
reported_property = "ROS production"
experimental_result = "386.28 RFU"

[[record]]
compound = "N.N.[Cl][Pt][Cl] [Cisplatin, cisplatin]"
reported_property = "ROS production"
experimental_result = "369.97 RFU"


---

- Tested on: HT29 cells
- Assay overview: Western blot protein expression
- Type: cell-based
- Settings: HT29, IC50, 72 h, representative blot Figure S29C
Below: a set of entries, each annotated with reported p53/GAPDH normalized to control (1).
Reported property: p53/GAPDH normalized to control (1)

[[record]]
molecule = "N[C@H]1CCCC[C@@H]1N.O=[N+]([O-])[O-].O=[N+]([O-])[O-].[OH-].[OH-].[Pt+4].c1cnc2c(c1)ccc1cccnc12"
reported_property = "p53/GAPDH normalized to control (1)"
experimental_result = 4.543

[[record]]
molecule = "Cc1cc2cccnc2c2ncccc12.N[C@H]1CCCC[C@@H]1N.O=[N+]([O-])[O-].O=[N+]([O-])[O-].[Pt+2] [Pt^II5MESS]"
reported_property = "p53/GAPDH normalized to control (1)"
experimental_result = 1.275

[[record]]
molecule = "Cc1c(C)c2cccnc2c2ncccc12.N[C@H]1CCCC[C@@H]1N.O=[N+]([O-])[O-].O=[N+]([O-])[O-].[Pt+2] [Pt^II56MESS]"
reported_property = "p53/GAPDH normalized to control (1)"
experimental_result = 1.014

[[record]]
molecule = "N[C@H]1CCCC[C@@H]1N.O=[N+]([O-])[O-].O=[N+]([O-])[O-].[Pt+2].c1cnc2c(c1)ccc1cccnc12"
reported_property = "p53/GAPDH normalized to control (1)"
experimental_result = 4.791

[[record]]
molecule = "N.N.[Cl][Pt][Cl] [Cisplatin, cisplatin]"
reported_property = "p53/GAPDH normalized to control (1)"
experimental_result = 0.9507

[[record]]
molecule = "Cc1cc2cccnc2c2ncccc12.N[C@H]1CCCC[C@@H]1N.O=[N+]([O-])[O-].O=[N+]([O-])[O-].[OH][Pt+2][OH] [Pt^IV5MESS(OH)2]"
reported_property = "p53/GAPDH normalized to control (1)"
experimental_result = 3.349

[[record]]
molecule = "Cc1c(C)c2cccnc2c2ncccc12.N[C@H]1CCCC[C@@H]1N.O=[N+]([O-])[O-].O=[N+]([O-])[O-].[OH][Pt+2][OH] [Pt^IV56MESS(OH)2]"
reported_property = "p53/GAPDH normalized to control (1)"
experimental_result = 5.047

